Data origin, for the record: PubChem BioAssay (Tox21)

Biological target: Acetylcholinesterase (Homo sapiens)
Assay: Acetylcholinesterase (AChE) small molecule antagonists: enzyme-based qHTS assay (AID 1347397); further: nearly all actives have a fitted effect of over 55% in size
Conditions: AChE enzyme activity inhibition; series mostly up to 115 µM
Excerpt: National Center for Advancing Translational Sciences [NCATS] Division of Preclinical Innovation [DPI] U.S. Environmental Protection Agency [EPA] National Institutes of Environmental Health Sciences [NIEHS] National Toxicology Program [NTP] U.S. Food and Drug Administration [FDA] Acetylcholinesterase (AChE) is the primary cholinesterase in the body that hydrolyzes a key neurotransmitter, acetylcholine. Inhibition of AChE activity can lead to neurotoxicity. […]
Calls of active or inactive are those of the source. The call rests on the fitted dose curve.
valueKind: outcome

{"columns": ["compound", "observedResult"],
 "data": [
  ["NNc1nc(-c2ccc([N+](=O)[O-])cc2)cs1", "inactive"],
  ["Cc1cn([C@H]2C=C[C@@H](CO)O2)c(=O)[nH]c1=O", "inactive"],
  ["C[C@H]1[C@H](NC(=O)/C(=N/OC(C)(C)C(=O)O)c2csc(N)n2)C(=O)N1S(=O)(=O)O (stereo in doubt)", "inactive"],
  ["COCCOC[C@H](CC1(C(=O)NC2CCC(C(=O)O)CC2)CCCC1)C(=O)Oc1ccc2c(c1)CCC2 (some centres undefined)", "inactive"],
  ["C[C@@H]1C[C@H]2O[C@@]3(O[C@@H]2C(C)(C)O)[C@H](O)[C@@]2(C)[C@@H]4CC[C@H]5C(C)(C)[C@@H](O[C@@H]6OC[C@@H](O)[C@H](O)[C@H]6O)CC[C@@]56C[C@@]46CC[C@]2(C)[C@@H]13", "inactive"],
  ["CCCCNS(=O)(=O)c1ccc(C)cc1", "inactive"],
  ["O=C1CCCc2c(O)cccc21", "inactive"],
  ["CC(C)(C)NCCO", "inactive"],
  ["CC(O)COc1ccccc1 (centres undefined)", "inactive"],
  ["CC(C)COC(=O)c1ccccc1O", "inactive"],
  ["CCC(=O)/C=C/C1C(C)=CCCC1(C)C (centres undefined)", "inactive"],
  ["CC(C)=CCCC(C)CCO (centres undefined)", "inactive"],
  ["O=C(OCc1ccccc1)c1ccccc1O", "inactive"],
  ["O=C1C=CC(=O)N1c1ccccc1", "inactive"],
  ["CCOc1nc2cccc(C(=O)O)c2n1Cc1ccc(-c2ccccc2-c2nn[nH]n2)cc1", "inactive"],
  ["CC(=O)O[C@]1(C(C)=O)CC[C@H]2[C@@H]3C=C(C)C4=CC(=O)CC[C@]4(C)[C@H]3CC[C@@]21C", "inactive"],
  ["CCCCCCCCCCOC(C)=O", "inactive"],
  ["c1ccc2c(c1)ccc1ccccc12", "inactive"],
  ["Nc1ncn([C@@H]2O[C@H](CO)[C@@H](O)[C@H]2O)c(=O)n1", "inactive"],
  ["CCc1oc2ccccc2c1C(=O)c1cc(Br)c(O)c(Br)c1", "inactive"],
  ["Cc1cnc(C(=O)NCCc2ccc(S(=O)(=O)NC(=O)NC3CCCCC3)cc2)cn1", "inactive"],
  ["O=C(O)c1ccc(O)cc1O", "inactive"],
  ["NC[C@H](O)c1ccc(O)c(O)c1", "inactive"],
  ["Oc1cc2ccccc2cc1O", "inactive"]
]}
